Molecular target: furin, P09958;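 note: purified furin at 1:10 enzyme:substrate in 50 mM HEPES pH 7.5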
Sequence (P09958 whole entry): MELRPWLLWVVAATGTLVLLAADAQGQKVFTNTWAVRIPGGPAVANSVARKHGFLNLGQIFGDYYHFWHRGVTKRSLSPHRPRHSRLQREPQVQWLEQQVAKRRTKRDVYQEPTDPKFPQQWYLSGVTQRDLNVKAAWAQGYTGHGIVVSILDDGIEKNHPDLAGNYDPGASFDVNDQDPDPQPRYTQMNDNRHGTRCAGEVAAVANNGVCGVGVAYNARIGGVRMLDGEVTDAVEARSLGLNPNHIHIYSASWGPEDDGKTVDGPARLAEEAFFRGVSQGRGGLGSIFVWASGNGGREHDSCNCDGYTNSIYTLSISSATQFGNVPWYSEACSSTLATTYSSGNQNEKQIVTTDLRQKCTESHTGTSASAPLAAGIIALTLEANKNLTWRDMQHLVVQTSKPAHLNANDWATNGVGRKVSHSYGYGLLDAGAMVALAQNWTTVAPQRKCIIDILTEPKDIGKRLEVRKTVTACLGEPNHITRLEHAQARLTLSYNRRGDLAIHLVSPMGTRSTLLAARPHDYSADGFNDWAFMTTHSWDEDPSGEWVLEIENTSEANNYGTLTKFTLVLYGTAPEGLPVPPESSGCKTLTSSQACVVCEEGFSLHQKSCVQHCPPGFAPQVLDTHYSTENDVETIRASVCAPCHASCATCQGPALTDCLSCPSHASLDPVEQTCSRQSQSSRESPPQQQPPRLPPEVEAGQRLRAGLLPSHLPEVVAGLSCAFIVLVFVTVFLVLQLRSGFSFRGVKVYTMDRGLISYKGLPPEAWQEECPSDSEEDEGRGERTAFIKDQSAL
Assay: furin cleavage Z-score vs untreated control; higher = more cleavage, active = 3.5 or more, inactive = 1 or less, 8 variable residues between constant flanks
Conditions: 15 min
Some of the results follow. The true hit rate is not given.
Property: furin cleavage Z-score; scope: individual sequences
Please give the numeric answer without any surrounding text.

A selection of reference data follows.
>>> result("CARENRSLFTAGNASASA [FS-2009]")
-0.333
>>> result("CADIIICDECAGNASASA [HC816]")
-0.956
>>> result("CAKVVTSTWVAGNASASA [HC2154]")
1.09

**Q:** Item CARERRDVQRAGNASASA [FS-1696] has what recorded furin cleavage Z-score?
**A:** 13.2

**Q:** For CARERRDLFTAGNASASA [FS-2659] , what is its reported furin cleavage Z-score?
**A:** 8.1

**Q:** Given the entry CARERRGPATAGNASASA [FS-2487] , report its measured furin cleavage Z-score.
**A:** 0.671

**Q:** Recorded furin cleavage Z-score for CARERRTLSVAGNASASA [FS-2661] , please?
**A:** 2.33
